Each entry below carries its reported melting point.

| molecule | melting point |
| --- | --- |
| Cc1ccc2nc(NC(=O)NCc3ccccc3)sc2c1 [Compound 7a] | 283.4 to 285.7 °C |
| Cc1ccc2nc(NC(=O)Nc3ccccc3)sc2c1 [Compound 6a] | 327 to 329 °C |
| CCOC(=O)Nc1nc2c(Br)cc(C)cc2s1 [Compound 8b] | 177 to 178 °C |
| Cc1cc2nc(N(C)C(=O)Nc3ccccc3)sc2cc1C [Compound 6ca] | 179 °C |
| Cc1ccc2nc(NC(=O)c3ccccc3)sc2c1 [Compound 3a] | 222 to 224 °C |
| CCNC(=O)Nc1nc2ccc(C)cc2s1 [Compound 5a] | 312 to 313 °C |
| Cc1ccc2nc(NC(=O)OCc3ccccc3)sc2c1 [Compound 10a] | 254 to 255 °C |
| Cc1cc2nc(NC(=O)Nc3ccccc3)sc2cc1C [Compound 6c] | > 290 °C |
| COc1ccc2nc(N(C)C(=O)Nc3ccccc3)sc2c1 [Compound 6ea] | 189 °C |
